Assay target: SHP2 (Homo sapiens)
Construct: endogenous in cells; host or cells: MV 411
Measurement description: SHP2 degradation in MV 411 cells by Western blot (median degradation concentration)
Assay type: cell-based
Test conditions: 24 hours with compound, SHP-2 antibody Western blot, concentration of the median degradation from exposure gray scale
Property: DC50 (nM)

CCOc1cc2oc(-c3ccc(OCCOCCOCCOCCOc4cccc5c4C(=O)N(C4CCC(=O)NC4=O)C5=O)cc3Cl)cc(=O)c2cc1-c1cc(C)cc(C(N)=O)c1 (centres unmarked)
750

P: CCOc1cc2oc(-c3ccc(OCCOCCOCCOCCOc4cccc5c4C(=O)N(C4CCC(=O)NC4=O)C5=O)cc3Cl)cc(=O)c2cc1-c1ccc(S(=O)(=O)N2CCOCC2)cc1F (centres unmarked)
Q: CCOc1cc2oc(-c3ccc(NCCOCCOCCOCCOc4ccc5c(c4)C(=O)N(C4CCC(=O)NC4=O)C5=O)cc3Cl)cc(=O)c2cc1-c1cccc(C(C)=O)c1 (centres unmarked) [Compound 36]
**Query** Which entry has a larger number for DC50, P or Q ? Indicate which entry you chose by stating its label.
**Result** P

* * *

Assay target: SHP2 (Homo sapiens, UniProt Q06124)
Construct: endogenous in cells; host or cells: MV 411
Sequence (Q06124 1-593): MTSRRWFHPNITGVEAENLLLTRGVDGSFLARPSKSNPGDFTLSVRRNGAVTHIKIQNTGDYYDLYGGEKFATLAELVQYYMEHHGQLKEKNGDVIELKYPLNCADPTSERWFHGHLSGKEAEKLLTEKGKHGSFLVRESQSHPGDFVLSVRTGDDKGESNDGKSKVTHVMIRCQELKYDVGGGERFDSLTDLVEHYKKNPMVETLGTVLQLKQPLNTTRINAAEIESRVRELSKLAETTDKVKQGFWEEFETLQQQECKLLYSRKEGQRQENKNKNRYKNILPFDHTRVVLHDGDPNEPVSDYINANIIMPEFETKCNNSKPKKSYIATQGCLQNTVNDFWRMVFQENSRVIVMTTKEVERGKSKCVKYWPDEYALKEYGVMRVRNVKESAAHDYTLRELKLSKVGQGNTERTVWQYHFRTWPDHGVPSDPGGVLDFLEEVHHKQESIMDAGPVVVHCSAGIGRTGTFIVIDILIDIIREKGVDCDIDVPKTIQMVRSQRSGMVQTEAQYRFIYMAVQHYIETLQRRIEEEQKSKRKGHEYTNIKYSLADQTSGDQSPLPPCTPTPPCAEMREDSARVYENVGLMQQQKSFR
Measurement description: SHP2 degradation in MV 411 cells by Western blot (median degradation concentration)
Type: cell-based
Test conditions: 24 hours with compound, SHP-2 antibody Western blot, concentration of the median degradation from exposure gray scale
Property: DC50 (nM)

CCOc1cc2oc(-c3ccc(OCCOCCOCCOCCOc4cccc5c4C(=O)N(C4CCC(=O)NC4=O)C5=O)cc3Cl)cc(=O)c2cc1-c1cc(C(N)=O)cc(C(N)=O)c1 (centres unmarked)
2

A: CCOc1cc2oc(-c3ccc(OCCOCCOCCOCCOc4cccc5c4C(=O)N(C4CCC(=O)NC4=O)C5=O)cc3Cl)cc(=O)c2cc1-c1cncc(C=O)c1 (centres unmarked)
B: CCOc1cc2oc(-c3ccc(OCCOCCOCCOCCOc4cccc5c4C(=O)N(C4CCC(=O)NC4=O)C5=O)cc3Cl)cc(=O)c2cc1-c1cc(N)cc(C(=O)O)c1 (centres unmarked)
**Query** Which entry has a larger number for DC50, A or B ? Indicate which entry you chose by stating its label.
**Result** B
